target: Phosphatidylinositol 4,5-bisphosphate 3-kinase catalytic subunit gamma isoform (Homo sapiens)
assayOverview: Invitrogen SelectScreen Enzymatic Assay
attributeMeasured: IC50 (nM)

entrySmiles	measuredValue
O=c1ccc2cnc3[nH]ccc3c2n1-c1ccc(F)c(O)c1	867

* * *

target: Phosphatidylinositol 4-kinase beta (Homo sapiens)
Sequence (Q9UBF8 whole entry): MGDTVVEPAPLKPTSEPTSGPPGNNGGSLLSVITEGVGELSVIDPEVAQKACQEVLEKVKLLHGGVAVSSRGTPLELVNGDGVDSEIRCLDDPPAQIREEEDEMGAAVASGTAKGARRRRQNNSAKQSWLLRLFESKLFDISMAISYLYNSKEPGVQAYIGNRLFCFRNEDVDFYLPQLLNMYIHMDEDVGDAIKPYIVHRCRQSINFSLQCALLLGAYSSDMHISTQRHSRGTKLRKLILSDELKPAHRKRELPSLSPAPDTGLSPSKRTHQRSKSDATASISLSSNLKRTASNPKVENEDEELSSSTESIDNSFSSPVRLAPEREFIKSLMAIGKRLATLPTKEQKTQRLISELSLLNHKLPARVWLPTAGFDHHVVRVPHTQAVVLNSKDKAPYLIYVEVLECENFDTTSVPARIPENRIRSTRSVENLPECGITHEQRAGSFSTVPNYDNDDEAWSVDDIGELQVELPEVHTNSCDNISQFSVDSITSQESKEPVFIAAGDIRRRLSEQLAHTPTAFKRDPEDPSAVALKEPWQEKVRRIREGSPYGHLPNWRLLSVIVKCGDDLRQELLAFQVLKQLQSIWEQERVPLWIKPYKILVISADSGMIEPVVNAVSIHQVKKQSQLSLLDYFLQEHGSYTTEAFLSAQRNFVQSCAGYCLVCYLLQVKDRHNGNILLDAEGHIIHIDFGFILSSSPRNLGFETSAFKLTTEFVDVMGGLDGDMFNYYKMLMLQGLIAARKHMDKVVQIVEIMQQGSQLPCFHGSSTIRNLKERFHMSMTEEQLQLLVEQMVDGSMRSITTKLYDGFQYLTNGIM
pIC50: −log10 of the molar value.
attributeMeasured: pIC50

compound	attributeMeasured	measuredValue
O=c1ccc2cnc3[nH]ccc3c2n1-c1ccc(F)c(O)c1 [STK16-IN-1]	pIC50	< 5.00

* * *

target: Phosphatidylinositol 3-kinase regulatory subunit alpha/4,5-bisphosphate 3-kinase catalytic subunit delta isoform (Homo sapiens)
assayOverview: Invitrogen SelectScreen Enzymatic Assay
pIC50: −log10 of the molar value.

entrySmiles	pIC50
O=c1ccc2cnc3[nH]ccc3c2n1-c1ccc(F)c(O)c1	6.07

* * *

target: Phosphatidylinositol 3-kinase regulatory subunit alpha/4,5-bisphosphate 3-kinase catalytic subunit alpha isoform (Homo sapiens, UniProt P42336)
Sequence (P27986 whole entry, canonical isoform): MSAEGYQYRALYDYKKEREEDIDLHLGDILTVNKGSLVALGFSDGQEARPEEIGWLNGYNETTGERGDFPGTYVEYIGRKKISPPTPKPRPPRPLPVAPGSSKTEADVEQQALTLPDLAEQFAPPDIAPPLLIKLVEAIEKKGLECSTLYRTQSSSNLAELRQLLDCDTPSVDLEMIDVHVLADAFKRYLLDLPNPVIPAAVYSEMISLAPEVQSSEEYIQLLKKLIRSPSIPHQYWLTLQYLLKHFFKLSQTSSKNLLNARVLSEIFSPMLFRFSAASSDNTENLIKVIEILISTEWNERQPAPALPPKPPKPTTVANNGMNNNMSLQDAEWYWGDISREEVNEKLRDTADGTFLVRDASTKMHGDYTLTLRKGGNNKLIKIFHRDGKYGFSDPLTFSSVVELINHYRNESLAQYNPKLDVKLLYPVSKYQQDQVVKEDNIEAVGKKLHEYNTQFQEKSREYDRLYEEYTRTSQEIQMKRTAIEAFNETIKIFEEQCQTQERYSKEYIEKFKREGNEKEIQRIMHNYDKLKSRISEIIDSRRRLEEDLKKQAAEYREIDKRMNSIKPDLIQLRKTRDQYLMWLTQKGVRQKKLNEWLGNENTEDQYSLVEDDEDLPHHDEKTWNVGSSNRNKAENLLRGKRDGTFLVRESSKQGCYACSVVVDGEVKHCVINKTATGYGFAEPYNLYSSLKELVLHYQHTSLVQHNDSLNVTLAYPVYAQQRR
Sequence (P42336 whole entry, canonical isoform): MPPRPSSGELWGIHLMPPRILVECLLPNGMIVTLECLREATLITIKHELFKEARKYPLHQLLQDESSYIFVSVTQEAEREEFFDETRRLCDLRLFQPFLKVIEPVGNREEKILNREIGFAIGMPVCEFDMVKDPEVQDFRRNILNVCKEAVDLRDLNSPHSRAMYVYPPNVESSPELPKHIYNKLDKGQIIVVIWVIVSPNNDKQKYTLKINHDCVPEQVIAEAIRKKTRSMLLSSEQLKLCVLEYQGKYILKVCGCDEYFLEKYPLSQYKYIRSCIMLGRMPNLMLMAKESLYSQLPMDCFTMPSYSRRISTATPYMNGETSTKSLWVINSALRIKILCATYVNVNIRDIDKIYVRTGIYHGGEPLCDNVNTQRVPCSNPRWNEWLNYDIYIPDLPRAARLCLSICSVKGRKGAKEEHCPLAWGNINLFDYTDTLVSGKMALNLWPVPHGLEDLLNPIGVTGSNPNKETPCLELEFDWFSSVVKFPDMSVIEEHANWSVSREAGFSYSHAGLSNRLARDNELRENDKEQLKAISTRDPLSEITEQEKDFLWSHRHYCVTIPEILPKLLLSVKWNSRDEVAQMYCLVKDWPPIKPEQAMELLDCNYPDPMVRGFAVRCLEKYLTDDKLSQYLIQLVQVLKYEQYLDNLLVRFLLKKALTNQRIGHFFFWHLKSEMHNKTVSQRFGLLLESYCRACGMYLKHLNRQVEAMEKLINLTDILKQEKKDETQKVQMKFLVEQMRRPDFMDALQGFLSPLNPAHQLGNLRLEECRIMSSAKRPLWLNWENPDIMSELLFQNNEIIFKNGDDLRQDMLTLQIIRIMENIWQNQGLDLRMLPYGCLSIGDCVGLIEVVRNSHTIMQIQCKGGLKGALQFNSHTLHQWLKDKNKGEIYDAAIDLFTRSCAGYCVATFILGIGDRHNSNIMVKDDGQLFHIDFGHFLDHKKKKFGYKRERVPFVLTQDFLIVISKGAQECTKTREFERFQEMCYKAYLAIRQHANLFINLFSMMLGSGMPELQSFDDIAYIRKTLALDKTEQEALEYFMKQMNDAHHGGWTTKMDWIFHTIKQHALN
assayOverview: Invitrogen SelectScreen Enzymatic Assay

compound	IC50 [nM]
O=c1ccc2cnc3[nH]ccc3c2n1-c1ccc(F)c(O)c1 [STK16-IN-1]	1070

* * *

target: Phosphatidylinositol 4-phosphate 3-kinase C2 domain-containing subunit alpha (Homo sapiens)
Sequence (O00443 whole entry, the tested form may be a part): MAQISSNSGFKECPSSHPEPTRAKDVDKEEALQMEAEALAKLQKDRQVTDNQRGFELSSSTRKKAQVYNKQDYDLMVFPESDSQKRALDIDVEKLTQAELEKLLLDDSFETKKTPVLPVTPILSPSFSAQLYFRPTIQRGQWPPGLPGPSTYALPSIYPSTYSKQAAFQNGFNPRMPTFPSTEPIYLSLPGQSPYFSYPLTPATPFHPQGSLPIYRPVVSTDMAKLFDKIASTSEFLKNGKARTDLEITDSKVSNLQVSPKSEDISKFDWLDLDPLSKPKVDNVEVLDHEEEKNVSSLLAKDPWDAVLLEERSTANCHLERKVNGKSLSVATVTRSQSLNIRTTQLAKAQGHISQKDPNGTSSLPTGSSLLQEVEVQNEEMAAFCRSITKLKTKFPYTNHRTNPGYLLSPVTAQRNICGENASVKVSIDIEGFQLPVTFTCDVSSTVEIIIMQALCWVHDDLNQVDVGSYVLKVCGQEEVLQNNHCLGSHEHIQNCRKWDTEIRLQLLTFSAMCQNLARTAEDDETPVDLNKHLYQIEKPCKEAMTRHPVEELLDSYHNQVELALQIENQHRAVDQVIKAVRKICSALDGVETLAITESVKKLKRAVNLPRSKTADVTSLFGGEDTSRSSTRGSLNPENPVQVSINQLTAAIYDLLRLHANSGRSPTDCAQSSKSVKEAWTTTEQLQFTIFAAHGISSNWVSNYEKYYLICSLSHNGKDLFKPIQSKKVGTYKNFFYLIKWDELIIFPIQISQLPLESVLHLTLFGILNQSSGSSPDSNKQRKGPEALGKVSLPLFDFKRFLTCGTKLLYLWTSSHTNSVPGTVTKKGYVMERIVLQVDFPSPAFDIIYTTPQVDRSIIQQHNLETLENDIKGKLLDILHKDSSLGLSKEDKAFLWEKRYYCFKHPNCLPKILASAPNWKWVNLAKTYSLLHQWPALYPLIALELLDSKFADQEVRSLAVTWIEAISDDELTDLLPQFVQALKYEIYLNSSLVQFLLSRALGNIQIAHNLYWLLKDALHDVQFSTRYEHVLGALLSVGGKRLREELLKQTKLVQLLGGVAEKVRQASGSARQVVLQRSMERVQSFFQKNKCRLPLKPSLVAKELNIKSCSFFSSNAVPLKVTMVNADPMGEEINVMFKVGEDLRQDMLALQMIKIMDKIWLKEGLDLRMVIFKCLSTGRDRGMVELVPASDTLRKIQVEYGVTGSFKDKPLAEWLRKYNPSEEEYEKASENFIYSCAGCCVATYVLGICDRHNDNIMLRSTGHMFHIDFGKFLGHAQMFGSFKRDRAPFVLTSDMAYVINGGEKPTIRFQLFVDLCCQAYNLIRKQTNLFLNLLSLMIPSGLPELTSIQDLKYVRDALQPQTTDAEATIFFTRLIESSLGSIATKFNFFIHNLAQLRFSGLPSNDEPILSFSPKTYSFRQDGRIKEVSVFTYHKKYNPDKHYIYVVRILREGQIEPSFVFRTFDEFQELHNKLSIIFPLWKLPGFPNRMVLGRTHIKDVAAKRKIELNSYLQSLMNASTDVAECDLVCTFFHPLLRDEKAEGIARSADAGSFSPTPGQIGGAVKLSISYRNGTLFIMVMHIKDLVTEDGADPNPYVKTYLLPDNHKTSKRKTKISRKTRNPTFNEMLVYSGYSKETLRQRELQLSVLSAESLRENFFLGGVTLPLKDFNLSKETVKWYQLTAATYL
assayOverview: Invitrogen SelectScreen Enzymatic Assay
pIC50: −log10 of the molar value.

entrySmiles	pIC50
O=c1ccc2cnc3[nH]ccc3c2n1-c1ccc(F)c(O)c1	5.31

* * *

target: Phosphatidylinositol 4-phosphate 3-kinase C2 domain-containing subunit beta (Homo sapiens)
assayOverview: Invitrogen SelectScreen Enzymatic Assay

entrySmiles	IC50
O=c1ccc2cnc3[nH]ccc3c2n1-c1ccc(F)c(O)c1	9.33 µM
